Listed here are molecules together with their documented IC50.
molecular target: human PD-1 (Jurkat-PD-1 cells) / PE-labeled human PD-L1-Ig (Homo sapiens); construct: expressed in transfected cells; host or cells: Jurkat cell line over-expressing human PD-1; experiment: Jurkat-PD-1 Cell Binding High-Content Screening Assay (CBA); Jurkat hPD1-PDL1 assay; conditions: Jurkat cell line over-expressing human PD-1; PE-labeled PD-L1-Ig 20 nM final; compound incubated 2 hours at 37° C.; read-out: Jurkat HPD1-PDL1 IC50
Positions of bridges follow the written chain, without caps; N, C: chain ends. Non-standard residues stand in square brackets, D forms with d. Residues, ends and D or L forms follow the SMILES beside them. ξ: configuration not given here. Bip = N[C@@H](Cc1ccc(-c2ccccc2)cc1)C(=O)O; NMeF = CN[C@@H](Cc1ccccc1)C(=O)O; 4Pal = N[C@@H](Cc1ccncc1)C(=O)O; Cha = N[C@@H](CC1CCCCC1)C(=O)O; Thr(3ξ) = CC(O)[C@H](N)C(=O)O; NMeA = CN[C@@H](C)C(=O)O; Orn = NCCC[C@H](N)C(=O)O; dNMeA = CN[C@H](C)C(=O)O; Dab = NCC[C@H](N)C(=O)O; Dap = NC[C@H](N)C(=O)O
Form entry: value (nM) — number only.

{"MOLECULE": "CC(C)C[C@@H]1NC(=O)[C@H](CCCNC(=N)N)NC(=O)[C@H](Cc2ccccc2)N(C)C(=O)[C@H](C)N(C)C(=O)[C@H](CCCN)NC(=O)[C@H](Cc2ccc(-c3ccccc3)cc2)NC(=O)[C@H](C(C)C)NC(=O)[C@H](Cc2c[nH]c3ccccc23)NC(=O)[C@H](CC(=O)O)NC(=O)[C@H](Cc2ccc(O)cc2)NC(=O)[C@H](Cc2cnc[nH]2)NC(=O)CSC[C@@H](C(=O)NCC(N)=O)NC(=O)[C@H](CO)NC(=O)[C@H](C(C)C)NC1=O [Example 1292] ({CH2CO}-HYDWV[Bip][Orn][NMeA][NMeF]RLVSCG-NH2; thioether N-14)", "TEST_RESULT": 90}

Now look at this one.
Task item: Identify the measured IC50 of CC(C)[C@@H]1NC(=O)[C@H](Cc2c[nH]c3ccccc23)NC(=O)[C@H](CC(=O)O)NC(=O)[C@H](Cc2ccncc2)NC(=O)[C@H](CN)NC(=O)CSC[C@@H](C(=O)NCC(N)=O)NC(=O)[C@H](C(C)O)NC(=O)[C@H](C(C)C)NC(=O)[C@H](CC2CCCCC2)NC(=O)[C@H](CCN)NC(=O)[C@@H](C)N(C)C(=O)[C@H](CCCN)NC(=O)[C@H](CN)NC(=O)[C@H](Cc2ccc(-c3ccccc3)cc2)NC1=O (some centres unmarked) [Example 1434] ({CH2CO}-[Dap][4Pal]DWV[Bip][Dap][Orn][dNMeA][Dab][Cha]V[Thr(3ξ)]CG-NH2; thioether N-14) for human PD-1 (Jurkat-PD-1 cells) / PE-labeled human PD-L1-Ig (Homo sapiens).
Reply: 100

###

target: human PD-1 (Jurkat-PD-1 cells) / PE-labeled human PD-L1-Ig (Homo sapiens, UniProt Q15116); construct: expressed in transfected cells; host or cells: Jurkat cell line over-expressing human PD-1; assay: Jurkat-PD-1 Cell Binding High-Content Screening Assay (CBA); Jurkat hPD1-PDL1 assay; conditions: Jurkat cell line over-expressing human PD-1; PE-labeled PD-L1-Ig 20 nM final; compound incubated 2 hours at 37° C.; read-out: Jurkat HPD1-PDL1 IC50
Sequence (Q15116 25-288): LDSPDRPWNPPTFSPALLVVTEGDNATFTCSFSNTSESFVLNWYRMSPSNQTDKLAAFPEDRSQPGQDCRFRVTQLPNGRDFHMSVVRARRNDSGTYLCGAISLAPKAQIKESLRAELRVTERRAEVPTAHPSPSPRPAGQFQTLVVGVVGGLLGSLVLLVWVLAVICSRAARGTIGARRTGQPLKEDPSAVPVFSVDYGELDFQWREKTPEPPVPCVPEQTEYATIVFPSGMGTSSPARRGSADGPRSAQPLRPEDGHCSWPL
Positions of bridges follow the written chain, without caps; N, C: chain ends. Non-standard residues stand in square brackets, D forms with d. Residues, ends and D or L forms follow the SMILES beside them. Bip = N[C@@H](Cc1ccc(-c2ccccc2)cc1)C(=O)O; NMeF = CN[C@@H](Cc1ccccc1)C(=O)O; NMeA = CN[C@@H](C)C(=O)O
Listed here are compounds together with their documented IC50.
Form entry: value (nM) — number only.

{"COMPOUND": "CC(C)C[C@@H]1NC(=O)[C@H](CC(N)=O)NC(=O)[C@H](Cc2ccccc2)N(C)C(=O)[C@H](C)N(C)C(=O)[C@H](CCCNC(=N)N)NC(=O)[C@H](Cc2ccc(-c3ccccc3)cc2)NC(=O)[C@H](C(C)C)NC(=O)[C@H](Cc2c[nH]c3ccccc23)NC(=O)[C@H](CC(=O)O)NC(=O)[C@H](Cc2ccc(O)cc2)NC(=O)[C@H](Cc2ccccc2)NC(=O)CSC[C@@H](C(=O)NCC(N)=O)NC(=O)[C@H](CO)NC(=O)[C@H](C(C)C)NC1=O [Example 1207] ({CH2CO}-FYDWV[Bip]R[NMeA][NMeF]NLVSCG-NH2; thioether N-14)", "TESTED_ON": "human PD-1 (Jurkat-PD-1 cells) / PE-labeled human PD-L1-Ig (Homo sapiens, UniProt Q15116)", "IC50 [nM]": 320}

Now look at this one.
Task item: Reported IC50, compound CC(C)C[C@@H]1NC(=O)[C@H](CCCCN)NC(=O)[C@H](Cc2ccccc2)N(C)C(=O)[C@H](C)N(C)C(=O)[C@H](CCCNC(=N)N)NC(=O)[C@H](Cc2ccc(-c3ccccc3)cc2)NC(=O)[C@H](C(C)C)NC(=O)[C@H](Cc2c[nH]c3ccccc23)NC(=O)[C@H](CC(=O)O)NC(=O)[C@H](Cc2ccc(O)cc2)NC(=O)[C@H](CCC(N)=O)NC(=O)CSC[C@@H](C(=O)NCC(N)=O)NC(=O)[C@H](CO)NC(=O)[C@H](C(C)C)NC1=O [Example 1313] ({CH2CO}-QYDWV[Bip]R[NMeA][NMeF]KLVSCG-NH2; thioether N-14) : ____
Reply: 240
